Subject of test: T1, human IL-23 (human, UniProt P29460 23-328; Q9NPF7 20-189)
T1 construct: Recombinant (Ebioscience); HIS-tagged in flow cytometry, biotinylated in some assays; also called hIL-23; rhIL-23
T1 sequence 1: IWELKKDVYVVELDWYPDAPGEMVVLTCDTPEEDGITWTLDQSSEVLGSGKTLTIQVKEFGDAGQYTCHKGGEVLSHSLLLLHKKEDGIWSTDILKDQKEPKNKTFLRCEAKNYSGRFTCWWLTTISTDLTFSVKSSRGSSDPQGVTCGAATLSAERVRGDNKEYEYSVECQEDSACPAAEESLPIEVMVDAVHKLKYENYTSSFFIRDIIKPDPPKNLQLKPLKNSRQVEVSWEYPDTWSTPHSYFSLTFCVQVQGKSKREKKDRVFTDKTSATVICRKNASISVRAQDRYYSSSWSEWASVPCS
T1 sequence 2: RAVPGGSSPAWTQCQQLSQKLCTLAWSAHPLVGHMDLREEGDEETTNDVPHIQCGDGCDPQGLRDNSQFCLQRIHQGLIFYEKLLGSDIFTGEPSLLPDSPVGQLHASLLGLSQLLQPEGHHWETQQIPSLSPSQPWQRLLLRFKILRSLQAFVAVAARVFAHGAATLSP
Assay remarks: ELISA, coated IL-23

Binder	binding result
Antibody 73 (antibody, human IgG1, kappa, V domains shown) VH: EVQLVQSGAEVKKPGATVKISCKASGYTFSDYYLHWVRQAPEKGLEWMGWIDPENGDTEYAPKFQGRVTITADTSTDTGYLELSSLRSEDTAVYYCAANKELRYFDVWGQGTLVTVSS VL: DIQMTQSPSSVSASVGDRVTITCRASQSISINLHWYQQKPGKAPKLLIKFASQSISGVPSRFSGYGSGTDFSLTINSLQPEDFARYYCQQSNSFPLTFGGGTKVEIKR	binds
